Test system: THP-1 cells
TEST PROTOCOL: MTT assay
Format: cell-based, human
TEST PARAMETERS: 0, 0.1, 1 or 10 μM tested, 24 h
Measured Optimal (nontoxic) concentration determined by MTT assay of individual entries
Please respond with the number in µM and leave the unit unwritten.

Examples with their reported Optimal (nontoxic) concentration determined by MTT assay follow.
{"COMPOUND": "CC1=C(/C=C/C(C)=C/C=C/C(C)=C/C=C/C=C(C)/C=C/C=C(C)/C=C/C2=C(C)C[C@@H](O)CC2(C)C)C(C)(C)C[C@H](O)C1 [ZX, zeaxanthin]", "VALUE MEASURED": 1}
{"COMPOUND": "CCCCC/C=C\\C/C=C\\C/C=C\\C/C=C\\CCCC(=O)O [ARA, arachidonic acid]", "VALUE MEASURED": 0.1}

Give recorded Optimal (nontoxic) concentration determined by MTT assay. CCCCCC/C=C\CCCCCCCC(=O)O [POA, palmitoleic acid] 10

Give recorded Optimal (nontoxic) concentration determined by MTT assay. CC1=C[C@H](O)CC(C)(C)[C@H]1/C=C/C(C)=C/C=C/C(C)=C/C=C/C=C(C)/C=C/C=C(C)/C=C/C1=C(C)C[C@@H](O)CC1(C)C [LTN, lutein] 0.1
